- tested.target: T1, human CD4 on the surface of SKW3 cells or human PBMCs (human, UniProt P01730 26-458)
- T1 construct: whole, on cells; SKW3 CD4 knockout cells served as the negative cell line; also called hCD4; SKW3 WT
- experimental.details: FACS confirmation, supernatant on SKW3 WT cells, anti-human kappa FITC; background gMFI 2500
# SKW3 WT anti-hu Kappa FITC, gMFI per entry
Give just the number in gMFI; leave the unit off.

Examples with answers:
binder	SKW3 WT anti-hu Kappa FITC, gMFI [gMFI]
75110_05B13A (antibody, V domains shown, Tested here as non-clonal hybridoma supernatant from AlivaMab Mouse Kappa mice (detected with anti-mouse Fc and anti-human kappa)) VH: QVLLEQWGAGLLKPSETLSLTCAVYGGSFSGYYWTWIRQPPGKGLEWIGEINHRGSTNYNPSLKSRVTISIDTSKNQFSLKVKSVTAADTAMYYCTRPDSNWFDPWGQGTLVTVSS VL: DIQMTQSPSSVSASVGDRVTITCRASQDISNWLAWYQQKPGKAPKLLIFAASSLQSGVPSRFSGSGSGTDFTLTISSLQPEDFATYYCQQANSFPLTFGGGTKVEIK	7310
75110_12H17A (antibody, V domains shown, Tested here as non-clonal hybridoma supernatant from AlivaMab Mouse Kappa mice (detected with anti-mouse Fc and anti-human kappa)) VH: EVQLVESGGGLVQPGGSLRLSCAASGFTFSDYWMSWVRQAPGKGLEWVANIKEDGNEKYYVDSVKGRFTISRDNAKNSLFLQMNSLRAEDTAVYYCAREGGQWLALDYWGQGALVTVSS VL: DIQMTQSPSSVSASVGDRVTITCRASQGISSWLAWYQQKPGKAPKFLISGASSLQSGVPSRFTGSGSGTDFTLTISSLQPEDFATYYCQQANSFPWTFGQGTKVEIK	5360

binder 75110_12H19A (antibody, V domains shown, Tested here as non-clonal hybridoma supernatant from AlivaMab Mouse Kappa mice (detected with anti-mouse Fc and anti-human kappa)) VH: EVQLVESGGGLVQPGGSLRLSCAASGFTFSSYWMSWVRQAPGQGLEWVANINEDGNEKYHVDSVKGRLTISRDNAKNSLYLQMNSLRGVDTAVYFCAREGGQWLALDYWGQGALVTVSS VL: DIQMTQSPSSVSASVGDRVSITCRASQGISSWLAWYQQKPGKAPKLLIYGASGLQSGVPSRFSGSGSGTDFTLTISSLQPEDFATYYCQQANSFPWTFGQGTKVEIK , SKW3 WT anti-hu Kappa FITC, gMFI observed: 6550
